# credit: paper PMC10786891

Listing of recorded pKd by entry.
system_name: T1, EsCas13d, nuclease-dead (Eubacterium siraeum, UniProt B0MS50, R295A;H300A;R849A;H854A)
T1 sequence: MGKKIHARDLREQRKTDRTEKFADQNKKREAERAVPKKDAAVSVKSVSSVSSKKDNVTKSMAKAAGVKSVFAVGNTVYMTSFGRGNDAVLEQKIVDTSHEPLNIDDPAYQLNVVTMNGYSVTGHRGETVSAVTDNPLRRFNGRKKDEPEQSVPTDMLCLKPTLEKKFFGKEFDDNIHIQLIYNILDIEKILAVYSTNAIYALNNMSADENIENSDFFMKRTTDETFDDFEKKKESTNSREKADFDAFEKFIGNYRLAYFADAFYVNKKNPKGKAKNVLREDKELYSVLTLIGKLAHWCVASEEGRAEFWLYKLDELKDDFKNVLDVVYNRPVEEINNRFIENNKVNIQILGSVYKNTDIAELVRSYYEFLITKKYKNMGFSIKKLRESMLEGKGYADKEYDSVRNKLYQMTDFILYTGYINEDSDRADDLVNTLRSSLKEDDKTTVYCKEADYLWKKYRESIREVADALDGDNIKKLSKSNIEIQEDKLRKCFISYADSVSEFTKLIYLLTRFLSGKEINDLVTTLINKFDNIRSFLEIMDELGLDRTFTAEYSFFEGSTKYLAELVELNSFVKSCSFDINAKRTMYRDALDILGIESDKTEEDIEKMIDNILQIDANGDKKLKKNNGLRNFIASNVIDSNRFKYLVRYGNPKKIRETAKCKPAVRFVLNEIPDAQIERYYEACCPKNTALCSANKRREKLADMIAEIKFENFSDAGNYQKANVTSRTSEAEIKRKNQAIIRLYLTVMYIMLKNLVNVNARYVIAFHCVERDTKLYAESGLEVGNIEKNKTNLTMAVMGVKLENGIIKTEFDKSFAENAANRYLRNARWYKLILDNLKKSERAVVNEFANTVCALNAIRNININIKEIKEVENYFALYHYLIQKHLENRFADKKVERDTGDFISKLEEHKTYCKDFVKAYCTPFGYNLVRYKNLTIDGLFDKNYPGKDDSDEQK
experiment_summary: crRNA (strand 1, pre-loaded); Mg2+; 40 mM Tris-HCl pH 7.5, 150 mM NaCl, 6 mM MgCl2, 1 mM DTT, 0.1% Tween-20, 0.2 mg/ml BSA; 25 C; 10 min per concentration, then washed
measurement_setup: tags: His6-TwinStrep-SUMO cleaved; N-terminal SNAP kept (SNAP-Surface 488); label: 3' end held by stalled T7 RNA polymerase
pKd: −log10 of the molar value.
measurement_type: pKd

- binder: "target 2 MT 5'PFS GGU 3'PFS CCA (mixed) RNA 1: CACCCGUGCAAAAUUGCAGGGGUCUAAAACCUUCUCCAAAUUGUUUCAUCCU RNA 2: GGGAAUGGAUCCACAUCUACGAAUUCGGUAGGAUGAAACAAUUUGGAGAAGCCAAGAUCGGAAGAGCACACGU"
  assay_result: 7.62
- binder: "target 3 insC 3' of 7 (mixed) RNA 1: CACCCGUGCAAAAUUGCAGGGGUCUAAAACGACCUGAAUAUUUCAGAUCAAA RNA 2: GGGAAUGGAUCCACAUCUACGAAUUCGUUUUUGAUCUGAAAUAUUCCAGGUCUGCAGAUCGGAAGAGCACACGU"
  assay_result: 7.04
- binder: "target 1 insG 3' of 8,insU 3' of 2 (mixed) RNA 1: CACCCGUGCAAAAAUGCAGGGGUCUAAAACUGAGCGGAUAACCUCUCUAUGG RNA 2: GGGAAUGGAUCCACAUCUACGAAUUCGUACCAUAGAGAGGUUAUGCCGCUCUACCGAGAUCGGAAGAGCACACGU"
  assay_result: 7.82
- binder: "target 3 insA 3' of 6,insA 3' of 3 (mixed) RNA 1: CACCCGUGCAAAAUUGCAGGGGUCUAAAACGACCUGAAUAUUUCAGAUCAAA RNA 2: GGGAAUGGAUCCACAUCUACGAAUUCGUUUUUGAUCUGAAAUAUUCAAGGAUCUGCAGAUCGGAAGAGCACACGU"
  assay_result: 8.21
